target: UniProt P05186; test: Inhibition of human TNAP using CDP-star as substrate pretreated for 10 mins followed by substrate addition measured after 10 mins by […] method; conditions: read-out: IC50
Sequence (P05186 whole entry): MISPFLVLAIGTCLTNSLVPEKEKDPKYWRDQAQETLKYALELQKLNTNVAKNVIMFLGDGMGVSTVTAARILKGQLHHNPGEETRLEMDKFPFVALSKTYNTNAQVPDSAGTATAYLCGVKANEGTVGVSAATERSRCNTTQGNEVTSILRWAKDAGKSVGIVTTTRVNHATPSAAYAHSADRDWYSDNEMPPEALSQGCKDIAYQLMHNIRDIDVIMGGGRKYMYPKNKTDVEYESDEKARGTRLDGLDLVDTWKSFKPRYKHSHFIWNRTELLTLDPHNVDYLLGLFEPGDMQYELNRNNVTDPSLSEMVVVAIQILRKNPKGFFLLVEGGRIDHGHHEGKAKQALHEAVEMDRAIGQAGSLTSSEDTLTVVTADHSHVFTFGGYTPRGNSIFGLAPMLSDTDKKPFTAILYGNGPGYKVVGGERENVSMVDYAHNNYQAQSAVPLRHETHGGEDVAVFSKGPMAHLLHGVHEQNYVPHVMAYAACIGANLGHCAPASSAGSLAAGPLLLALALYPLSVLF
PROPERTY LABEL: IC50 (nM)

query: // returns reported IC50 for input N[C@@H](Cc1ccccc1)C(=O)O
result: 100000

query: Likewise for CCCCS(=O)(=O)Oc1ccc2c(C)c(Cl)c(=O)oc2c1 ?
result: 1640

query: Likewise for Cc1c(Cl)c(=O)oc2cc(OS(=O)(=O)c3ccccc3)ccc12 ?
result: 10300

[a] Cc1cc(=O)oc2cc(OS(=O)(=O)c3ccc(Cl)c([N+](=O)[O-])c3)ccc12
[b] CCCCCCCCS(=O)(=O)Oc1ccc2c(C)cc(=O)oc2c1OS(=O)(=O)CCCCCCCC
query: Of a versus b , which is the one with smaller reported IC50? Please identify the chosen entry by its label.
result: b
(b: 920 nM, a: 2310 nM)

[a] Cc1c(C#N)c(=O)oc2cc(OS(C)(=O)=O)ccc12
[b] CCCCCCCCS(=O)(=O)Oc1ccc2c(C)c(C#N)c(=O)oc2c1
query: Endpoint returns whichever of a and b has the numerically higher IC50. Please identify the chosen entry by its label.
result: a
(a: 1990 nM, b: 920 nM)

[1] Cc1c(C#N)c(=O)oc2cc(OS(=O)(=O)c3ccccc3)ccc12
[2] Cc1c(C#N)c(=O)oc2cc(OS(=O)(=O)c3cccc([N+](=O)[O-])c3)ccc12
query: Endpoint returns whichever of 1 and 2 has the numerically higher IC50. Please identify the chosen entry by its label.
result: 1

This collection of values is drawn from ChEMBL document CHEMBL4011599.
